Each recorded value in this set is attributed to patent US20240116997A1.

- test-system: T1, IL-18 receptor (IL-18Rαβ) on cells (UniProt Q13478 19-541; O95256 20-599, limits assumed)
- T1 sequence (looked up) 1: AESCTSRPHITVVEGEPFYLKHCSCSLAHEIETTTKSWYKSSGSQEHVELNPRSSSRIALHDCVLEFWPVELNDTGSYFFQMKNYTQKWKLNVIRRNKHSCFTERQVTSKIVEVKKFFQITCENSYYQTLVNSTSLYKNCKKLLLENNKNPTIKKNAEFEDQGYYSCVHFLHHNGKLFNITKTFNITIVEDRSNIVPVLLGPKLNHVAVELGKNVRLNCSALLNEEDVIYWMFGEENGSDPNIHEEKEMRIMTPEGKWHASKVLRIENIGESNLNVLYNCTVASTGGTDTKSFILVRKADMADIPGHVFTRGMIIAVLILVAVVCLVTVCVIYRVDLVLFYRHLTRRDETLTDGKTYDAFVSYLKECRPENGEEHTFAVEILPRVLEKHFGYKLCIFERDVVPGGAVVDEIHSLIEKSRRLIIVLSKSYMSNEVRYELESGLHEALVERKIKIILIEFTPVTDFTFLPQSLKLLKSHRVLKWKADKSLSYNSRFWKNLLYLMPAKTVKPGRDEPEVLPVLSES
- T1 sequence (looked up) 2: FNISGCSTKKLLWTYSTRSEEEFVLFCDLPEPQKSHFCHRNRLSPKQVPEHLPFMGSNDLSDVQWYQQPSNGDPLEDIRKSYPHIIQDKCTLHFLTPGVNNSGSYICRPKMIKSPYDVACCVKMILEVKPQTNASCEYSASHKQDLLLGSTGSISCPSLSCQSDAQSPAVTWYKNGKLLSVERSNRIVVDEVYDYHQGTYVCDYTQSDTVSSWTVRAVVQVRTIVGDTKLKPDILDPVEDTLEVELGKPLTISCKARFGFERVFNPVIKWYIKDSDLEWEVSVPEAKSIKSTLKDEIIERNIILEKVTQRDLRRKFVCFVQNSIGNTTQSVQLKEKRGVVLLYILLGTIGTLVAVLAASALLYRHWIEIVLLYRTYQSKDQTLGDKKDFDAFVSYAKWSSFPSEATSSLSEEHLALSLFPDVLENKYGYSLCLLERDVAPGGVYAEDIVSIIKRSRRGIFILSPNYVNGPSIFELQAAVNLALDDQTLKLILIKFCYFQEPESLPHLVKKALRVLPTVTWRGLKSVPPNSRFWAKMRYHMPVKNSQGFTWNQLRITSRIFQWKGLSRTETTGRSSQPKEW
- measurement-protocol: cell-based or functional assay
quantity-name: EC50 (pM), HEK-Blue IL-18R reporter assay

These recorded examples may help you get a feel for the data.
- binder: "IL-18 polypeptide SEQ ID NO: 50 (E06K, K53A, T63A) (ligand) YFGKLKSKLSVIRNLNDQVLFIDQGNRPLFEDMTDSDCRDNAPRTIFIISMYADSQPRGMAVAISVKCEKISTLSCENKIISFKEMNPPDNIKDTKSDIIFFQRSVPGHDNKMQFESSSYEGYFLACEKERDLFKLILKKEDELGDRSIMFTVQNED"
  result: "1.77 pM"
- binder: "C151 (V11I, D35A, C38A, K53A, C76A, C127A) (ligand) YFGKLESKLSIIRNLNDQVLFIDQGNRPLFEDMTASDARDNAPRTIFIISMYADSQPRGMAVTISVKCEKISTLSAENKIISFKEMNPPDNIKDTKSDIIFFQRSVPGHDNKMQFESSSYEGYFLAAEKERDLFKLILKKEDELGDRSIMFTVQNED"
  result: "13.1 pM"
- binder: "C152 (V11I, S36A, C38A, K53A, C76A, C127A) (ligand) YFGKLESKLSIIRNLNDQVLFIDQGNRPLFEDMTDADARDNAPRTIFIISMYADSQPRGMAVTISVKCEKISTLSAENKIISFKEMNPPDNIKDTKSDIIFFQRSVPGHDNKMQFESSSYEGYFLAAEKERDLFKLILKKEDELGDRSIMFTVQNED"
  result: "0.25 pM"
- binder: "C182 (E6K, V11I, C38A, K53A, T63A, C76A, C127A, V153Y) (ligand) YFGKLKSKLSIIRNLNDQVLFIDQGNRPLFEDMTDSDARDNAPRTIFIISMYADSQPRGMAVAISVKCEKISTLSAENKIISFKEMNPPDNIKDTKSDIIFFQRSVPGHDNKMQFESSSYEGYFLAAEKERDLFKLILKKEDELGDRSIMFTYQNED"
  result: "0.08 pM"
- binder: "IL-18 polypeptide SEQ ID NO: 59 (E6K, C38A, K53A) (ligand) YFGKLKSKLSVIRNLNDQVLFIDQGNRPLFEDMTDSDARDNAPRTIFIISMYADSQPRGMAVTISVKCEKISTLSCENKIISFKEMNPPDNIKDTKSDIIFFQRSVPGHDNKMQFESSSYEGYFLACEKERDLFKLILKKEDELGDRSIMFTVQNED"
  result: "0.268 pM"
- binder: "IL-18 polypeptide SEQ ID NO: 56 (E6K, K53A, C38S, C76S, C127S) (ligand) YFGKLKSKLSVIRNLNDQVLFIDQGNRPLFEDMTDSDSRDNAPRTIFIISMYADSQPRGMAVTISVKCEKISTLSSENKIISFKEMNPPDNIKDTKSDIIFFQRSVPGHDNKMQFESSSYEGYFLASEKERDLFKLILKKEDELGDRSIMFTVQNED"
  result: "3.73 pM"

Moving on to another binder below.
Q: Answer with reported EC50 (pM), HEK-Blue IL-18R reporter assay of C159 (V11I, C38A, K53A, C76A, H109A, C127A) (ligand) YFGKLESKLSIIRNLNDQVLFIDQGNRPLFEDMTDSDARDNAPRTIFIISMYADSQPRGMAVTISVKCEKISTLSAENKIISFKEMNPPDNIKDTKSDIIFFQRSVPGADNKMQFESSSYEGYFLAAEKERDLFKLILKKEDELGDRSIMFTVQNED
A: 19.5 pM
